Target: HA protein from H1N1 A/Solomon Islands/3/2006 (Influenza A virus (A/Solomon …, UniProt A7Y8I1, strain))
Assay: BLI
Settings: both partners purified
MEASUREMENT KIND: pKd
On this scale, pKd is minus log10 of a concentration expressed in M (mol/L).

• CR9114 gHC Fab VL W91F (Fab, V domains shown, Kabat numbering; source: Expi293F, co-transfected, purified (CaptureSelect CH1-XL)) VH: QVQLVQSGAEVKKPGSSVKVSCKASGGTFSSYAISWVRQAPGQGLEWMGGIIPIFGTANYAQKFQGRVTITADKSTSTAYMELSSLRSEDTAVYYCARHGNYYYYYGMDVWGQGTTVTVSS VL: SYVLTQPPAVSGTPGQRVTISCSGSDSNIGRRSVNWYQQFPGTAPKLLIYSNDQRPSVVPDRFSGSKSGTSASLAISGLQSEDEAEYYCAAFDDSLKGAVFGGGTQLTVL = 5.02
• CR9114 gHC Fab VL W91Y (Fab, V domains shown, Kabat numbering; source: Expi293F, co-transfected, purified (CaptureSelect CH1-XL)) VH: QVQLVQSGAEVKKPGSSVKVSCKASGGTFSSYAISWVRQAPGQGLEWMGGIIPIFGTANYAQKFQGRVTITADKSTSTAYMELSSLRSEDTAVYYCARHGNYYYYYGMDVWGQGTTVTVSS VL: SYVLTQPPAVSGTPGQRVTISCSGSDSNIGRRSVNWYQQFPGTAPKLLIYSNDQRPSVVPDRFSGSKSGTSASLAISGLQSEDEAEYYCAAYDDSLKGAVFGGGTQLTVL = 4.57

Input: Annotate the binder CR9114 gHC Fab VL A96V (Fab, V domains shown, Kabat numbering; source: Expi293F, co-transfected, purified (CaptureSelect CH1-XL)) VH: QVQLVQSGAEVKKPGSSVKVSCKASGGTFSSYAISWVRQAPGQGLEWMGGIIPIFGTANYAQKFQGRVTITADKSTSTAYMELSSLRSEDTAVYYCARHGNYYYYYGMDVWGQGTTVTVSS VL: SYVLTQPPAVSGTPGQRVTISCSGSDSNIGRRSVNWYQQFPGTAPKLLIYSNDQRPSVVPDRFSGSKSGTSASLAISGLQSEDEAEYYCAAWDDSLKGVVFGGGTQLTVL with its measured pKd.
Output: 4.80
